Tested on: HEK-293T
Test: Multiplex assay against HEK293T
Type: toxicity, cell-based
Conditions: human, 12 h, 10 µM, compound concentration 10 uM, replicate 2
Record form. Attribute: Population Mitotic Cells (%). Fill in for each entry.
Answers are plain numbers, in %.

Solved cases below.
compound=CN1CCN(CCOc2cc(OC3CCOCC3)c3c(Nc4c(Cl)ccc5c4OCO5)ncnc3c2)CC1 endpoint="Population Mitotic Cells (%)" measurement=17
compound=Cc1nc(Nc2n[nH]c3c2CN(C(=O)N[C@H](CN(C)C)c2ccccc2)C3(C)C)c2sccc2n1 endpoint="Population Mitotic Cells (%)" measurement=75
compound=Cc1nc(-c2cn3c(n2)-c2ccc(-c4cnn(C(C)(C)C(N)=O)c4)cc2OCC3)n(C(C)C)n1 endpoint="Population Mitotic Cells (%)" measurement=88

For each listed entry, give its Population Mitotic Cells (%).
1. Cc1[nH]c(/C=C2\C(=O)Nc3ccc(S(=O)(=O)N(C)c4cccc(Cl)c4)cc32)c(C)c1C(=O)N1CCN(C)CC1
2. C[C@@]1(C(=O)Nc2ccc(F)nc2)CCCN1c1nc(Nc2cc(C3CC3)n[nH]2)c2cccn2n1
3. CNc1nc(NCc2ccc(NS(C)(=O)=O)cc2Cl)cc(-c2ccccn2)n1
4. CC[C@H](C)C(=O)O[C@H]1C[C@@H](C)C=C2C=C[C@H](C)[C@H](CC[C@@H]3C[C@@H](O)CC(=O)O3)[C@H]21
5. C[C@@H](NCCCc1cccc(C(F)(F)F)c1)c1cccc2ccccc12.Cl [CINACALCET HYDROCHLORIDE]
6. CC(C)(O)CNc1ncc(-c2ccnc(Nc3ccnc(Cl)c3)n2)c(CC2CC2)n1

## Result
50
51
74
89
19
47

For each listed entry, give its Population Mitotic Cells (%).
1. CCN(CC)CCCCNc1ncc2cc(-c3cc(OC)cc(OC)c3)c(NC(=O)NC(C)(C)C)nc2n1
2. O=C1NCN(c2ccccc2)C12CCN(CCCOc1ccc(F)cc1)CC2 [SPIRAMIDE]
3. COc1cc2nccc(Oc3ccc(NC(=O)Nc4cc(C)on4)c(Cl)c3)c2cc1OC.O
4. CC(C)NCC(O)COc1ccc(CCOCC2CC2)cc1.Cl (stereo unspecified) [BETAXOLOL HYDROCHLORIDE]

## Result
1. 71
2. 80
3. 40
4. 63

For each listed entry, give its Population Mitotic Cells (%).
1. COc1ncc(-c2ccc3nccc(-c4ccnnc4)c3c2)cc1NS(=O)(=O)c1ccc(F)cc1F
2. CN1CCC[C@@H]1CCO[C@](C)(c1ccccc1)c1ccc(Cl)cc1.O=C(O)/C=C/C(=O)O [CLEMASTINE FUMARATE]

## Result
1: 65; 2: 14

###

Record form. Attribute: Population Tubulin-Different-Phenotype (%). Fill in for each entry.
Tested on: U2OS
Test: Multiplex assay against U2OS
Format: toxicity, cell-based
Settings: human, 48 h, 1 µM, compound concentration 1 uM, replicate 2
Answers are plain numbers, in %.

Solved cases below.
compound_structure=CC[C@H](C)C(=O)O[C@H]1C[C@@H](C)C=C2C=C[C@H](C)[C@H](CC[C@@H]3C[C@@H](O)CC(=O)O3)[C@H]21 measurement=7
compound_structure=OC1(c2ccc(Cl)cc2)CCN(Cc2c[nH]c3ccccc23)CC1 measurement=16
compound_structure=CNc1nc(NCc2ccc(NS(C)(=O)=O)cc2Cl)cc(-c2ccccn2)n1 measurement=15

Could you now consider this next compound?
## Task Return reported Population Tubulin-Different-Phenotype (%); argument: Cc1csc2c(N[C@@H](C)CN3CCN(S(=O)(=O)c4ccc(Cl)c(Cl)c4)CC3)ncnc12
## Result 20

###

Record form. Attribute: Growth Rate. Fill in for each entry.
Test system: U2OS
Assay: Incucyte cell viability with U2OS; note: filed as whole numbers so only -1 and 0 and 1 occur
Format: toxicity, cell-based
Details: human, 24 h, 10 µM, compound concentration 10 uM, replicate number 1, timepoint 24 hours
Give bare numbers.

Solved cases below.
compound=Cc1sc2c(c1C)C(c1ccc(Cl)cc1)=N[C@@H](CC(=O)OC(C)(C)C)c1nnc(C)n1-2 measurement=0
compound=NC(=O)c1ccc(NC(=O)NCc2cccc(C(=O)Nc3ccc4c(c3)CNCC4)c2)cc1 measurement=1
compound=CN1C(=O)[C@@H](N2CCc3cn(Cc4ccccc4)nc3C2=O)COc2ccccc21 measurement=1
compound=CCn1c(=O)c(-c2ccc(Cl)cc2Cl)cc2cnc(Nc3ccc(N4CCNCC4)c(F)c3)nc21 measurement=0

For each listed entry, give its Growth Rate.
1. COc1cccc([C@@H](C)NCCCc2ccccc2Cl)c1.Cl [TECALCET HYDROCHLORIDE]
2. COc1ccc(Cn2ccc3ccc(C(=O)NO)cc32)cc1
3. CN([C@@H]1CCc2c(CC(=O)O)c3cc(S(C)(=O)=O)ccc3n2C1)S(=O)(=O)c1ccc(F)cc1 [CRTH2-negative-control]
4. O=c1nc(-c2ccccn2)sc2ccccc12

## Result
1. 1
2. 0
3. 0
4. 1

For each listed entry, give its Growth Rate.
1. Cc1nc(Nc2n[nH]c3c2CN(C(=O)N[C@H](CN(C)C)c2ccccc2)C3(C)C)c2sccc2n1
2. CC(C)(C)NCC(O)COc1cccc2[nH]c(=O)[nH]c12.Cl (configuration not stated)
3. Cl.N#Cc1ccc2[nH]cc(CCCCN3CCN(c4ccc5oc(C(N)=O)cc5c4)CC3)c2c1 [VILAZODONE HYDROCHLORIDE]
4. O=C(/C=C/N1C[C@H]2C[C@@H]1CN2c1ccccn1)c1ccccc1O
5. CN(C)CC#Cc1ccc(OCCCc2sc(N3CCc4cccc(C(=O)Nc5nc6ccccc6s5)c4C3)nc2C(=O)O)c(F)c1

## Result
1: 0; 2: 1; 3: 0; 4: 0; 5: 0

For each listed entry, give its Growth Rate.
1. O=C(NCc1ccccc1)c1ccc(S(=O)(=O)NCc2ccccc2)cc1
2. C[C@@]1(C(=O)Nc2ccc(F)nc2)CCCN1c1nc(Nc2cc(C3CC3)n[nH]2)c2cccn2n1
3. Cc1c(-c2ccc(O)cc2)n(Cc2ccc(OCCN3CCCCCC3)cc2)c2ccc(O)cc12
4. Cc1nc(C2CCN(C(=O)c3ccc(OC(F)(F)F)cc3N)CC2)c2ncc(N3CCN(C)CC3)cc2n1

## Result
1: 1; 2: 0; 3: 0; 4: 0

###

Record form. Attribute: Population Pyknosed Nuclei (%). Fill in for each entry.
Tested on: HEK-293T
Test: Multiplex assay against HEK293T
Format: toxicity, cell-based
Settings: human, 24 h, 1 µM, compound concentration 1 uM, replicate 2
One number for each entry, in %.

molecule="CN1CCC[C@@H]1CCO[C@](C)(c1ccccc1)c1ccc(Cl)cc1.O=C(O)/C=C/C(=O)O [CLEMASTINE FUMARATE]" endpoint="Population Pyknosed Nuclei (%)" measurement=32
molecule="CN1CCN(c2ccc(OC(F)(F)F)c(Nc3ncc4c(n3)-c3c(c(C(N)=O)nn3CCO)CC4)c2)CC1 [ONVANSERTIB]" endpoint="Population Pyknosed Nuclei (%)" measurement=62

For each listed entry, give its Population Pyknosed Nuclei (%).
1. CC(C)(O)CNc1ncc(-c2ccnc(Nc3ccnc(Cl)c3)n2)c(CC2CC2)n1
2. Cc1cc(C)cc(-c2cnc3cc(Cl)c(-c4cccc(O)c4)cc3c2OCCCN)c1

## Result
[56, 36]

For each listed entry, give its Population Pyknosed Nuclei (%).
1. CN(C)C(=O)N[C@H]1CC[C@H](CCN2CCN(c3cccc(Cl)c3Cl)CC2)CC1.Cl [CARIPRAZINE HYDROCHLORIDE]
2. COc1cccc([C@@H](C)NCCCc2ccccc2Cl)c1.Cl [TECALCET HYDROCHLORIDE]
3. C=CC(=O)Nc1cccc(C(=O)Nc2ccc(Nc3cc(-c4[nH]c(SC)nc4C)ccn3)cc2)c1
4. c1cn2cc(-c3ccc4cn[nH]c4c3)nc(Nc3ccc(N4CCOCC4)cc3)c2n1 [ENTOSPLETINIB]

## Result
[33, 46, 30, 35]

###

System: HEK-293T
Assay: Multiplex assay against HEK293T
Format: toxicity, cell-based
Conditions: human, 12 h, 1 µM, compound concentration 1 uM, replicate 2
Record form. Attribute: Population Membrane Permeable-Phenotype (%). Fill in for each entry.
Answers are plain numbers, in %.

Solved cases below.
compound_structure=c1cn2cc(-c3ccc4cn[nH]c4c3)nc(Nc3ccc(N4CCOCC4)cc3)c2n1 measurement=10
compound_structure=Cn1cc(-c2[nH]c3cc(NC(=O)[C@H](N)C4CCCCC4)cc4c3c2C=NNC4=O)cn1 measurement=11
compound_structure=Cc1cc(C)cc(-c2cnc3cc(Cl)c(-c4cccc(O)c4)cc3c2OCCCN)c1 measurement=6
compound_structure=CNc1nc(NCc2ccc(NS(C)(=O)=O)cc2Cl)cc(-c2ccccn2)n1 measurement=6

## Task Return reported Population Membrane Permeable-Phenotype (%); argument: CN1CCN(c2ccc(OC(F)(F)F)c(Nc3ncc4c(n3)-c3c(c(C(N)=O)nn3CCO)CC4)c2)CC1
## Result 0

Every entry's value here was drawn from ChEMBL document CHEMBL4689842.
